experimentalSystem: CDK2/Cyclin E1 (Homo sapiens, UniProt P24941)
testDescription: CDK2/Cyclin E1 Biochemical Assay (TR-FRET), 0.060 mM ATP
experimentalConditions: 0.15 μM Rb (Ser780)-biotin substrate, pH7.0, 60 min preincubation, 120 min reaction, room temperature

- molecule: "COc1cc2c(cc1Nc1cc([C@@H]3CC[C@H](OC(=O)NC(C)C)C3)[nH]n1)CNS2(=O)=O (relative stereo) [Example 15]"
  experimentalSystem: "CDK2/Cyclin E1 (Homo sapiens, UniProt P24941)"
  IC50: "23 nM"
- molecule: "CCCNC(=O)O[C@H]1CC[C@@H](c2cc(Nc3ccc4c(c3F)CN(C)S4(=O)=O)n[nH]2)C1 (single isomer, unassigned) [Example 122a]"
  experimentalSystem: "CDK2/Cyclin E1 (Homo sapiens, UniProt P24941)"
  IC50: "12 nM"
- molecule: "CC[C@H](C)NC(=O)O[C@H]1CC[C@@H](c2cc(Nc3ccc4c(c3)CCS(=O)(=O)N4)n[nH]2)C1 (relative stereo) [Example 248]"
  experimentalSystem: "CDK2/Cyclin E1 (Homo sapiens, UniProt P24941)"
  IC50: "2.6 nM"
